Test system: human lung cancer strain NCI-H441
Assay type: cell-based
List of pIC50 values.
pIC50 is a log-scale quantity: -log10 of the concentration expressed in molar.

# Compound, pIC50
records = [
    ("CCC[C@H]1C(=O)N[C@@H]([C@@H](C)CC)C(=O)N(C2CC2)CC(=O)N(C)[C@H]2C/C=C\\CCN(C2=O)[C@@H](Cc2ccc(C)cc2)C(=O)N(C)CC(=O)N[C@@H](CCc2ccc(Cl)c(Cl)c2)C(=O)N2C[C@H](OCC)C[C@H]2C(=O)NC2(CC(C)(C)C2)C(=O)N(C)[C@@H](CC2CC2)C(=O)N(C)[C@H](C(=O)N(C)C)CC(=O)N1C [PP2805]", 7.08),
]

Per the record, CCO[C@@H]1C[C@H]2C(=O)NC3(CCC3)C(=O)N(C)[C@@H](C3CCCC3)C(=O)N(C)[C@H](C(=O)N3CCOCC3)CC(=O)N(C)[C@@H](Cc3ccc(C)cc3)C(=O)N[C@@H]([C@@H](C)CC)C(=O)N(C)CC(=O)N(C)[C@H]3CCCCCN(C3=O)[C@@H](Cc3ccc(C(F)(F)F)cc3)C(=O)N(C)CC(=O)N[C@@H](CCc3cc(F)c(C(F)(F)F)c(F)c3)C(=O)N2C1 [PP0933] has pIC50 of 6.82

Per the record, CCO[C@@H]1C[C@H]2C(=O)NC3(CCC3)C(=O)N(C)[C@@H](CC(F)F)C(=O)N(C)[C@H](C(=O)N3CCOCC3)CC(=O)N(C)[C@@H](CC(C)C)C(=O)N[C@@H]([C@@H](C)CC)C(=O)N(C)CC(=O)N(C)[C@H]3CCCCN(C3=O)[C@@H](Cc3ccc(C(F)(F)F)cc3)C(=O)N(C)CC(=O)N[C@@H](CCc3cc(F)c(C(F)(F)F)c(F)c3)C(=O)N2C1 [PP0813] has pIC50 of 7.04

----------
Tested on: human lung cancer strain NCI-H441
Format: cell-based
Experimental: A test compound was dispensed into a U-bottom 384-well plate as 40 nL serially diluted dimethyl sulfoxide solutions using a liquid handler Echo (LABCYTE). […] This cell suspension was dispensed in an amount of 40 µL per well into a plate containing the test compound, and cultured at 37°C in a 5% carbon dioxide gas incubator. Four days later, 20 µL of CellTiter-Glo (registered trademark) (Promega) was added to each well and […] was measured. […]
List of pIC50 values.
pIC50 is a log-scale quantity: -log10 of the concentration expressed in molar.

Per the record, CCCN(C)C(=O)[C@@H]1CC(=O)N(C)[C@@H](COC)C(=O)N[C@@H]([C@@H](C)CC)C(=O)N(C)CC(=O)N(C)[C@H]2C/C=C\CCN(C2=O)[C@@H](Cc2ccc(C(F)(F)F)cc2)C(=O)N(C)CC(=O)N[C@@H](CCc2cc(F)c(C(F)(F)F)c(F)c2)C(=O)N2CCC[C@H]2C(=O)NC2(CC(C)(C)C2)C(=O)N(C)[C@@H](C2CCCC2)C(=O)N1C has pIC50 of 7.69

----------
Biological target: GDP-bound KRAS wild-type protein (Homo sapiens, UniProt P01116)
Sequence (P01116 1-188 isoform P01116-2): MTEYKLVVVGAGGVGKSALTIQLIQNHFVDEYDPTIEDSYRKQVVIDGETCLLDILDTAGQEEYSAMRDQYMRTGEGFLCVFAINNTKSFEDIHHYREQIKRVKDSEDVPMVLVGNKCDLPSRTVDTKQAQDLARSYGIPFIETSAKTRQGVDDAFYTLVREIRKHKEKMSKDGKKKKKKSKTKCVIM
Assay: Binding to KRAS by surface plasmon resonance (SPR), dissociation constant KD
Conditions: 1:1 binding model
Where a SMILES comes first, the peptide text is derived from it. Bridges are numbered along the chain shown (N, C = ends). [ ]: non-standard residue; d: D form. The star is where a group is joined. hPhe(3-Cl-4-CF3) = N[C@@H](CCc1ccc(C(F)(F)F)c(Cl)c1)C(=O)O; NPrPhe(4-CF3) = CCCN[C@@H](Cc1ccc(C(F)(F)F)cc1)C(=O)O; Abu(4,4,4-F3) = N[C@@H](CC(F)(F)F)C(=O)O; NMeGly(cPent) = CN[C@H](C(=O)O)C1CCCC1; NMeD = CN[C@@H](CC(=O)O)C(=O)O; NMeL = CN[C@@H](CC(C)C)C(=O)O; Morpholide = C1CN(*)CCO1; Ac5c = NC1(C(=O)O)CCCC1; Aze = O=C(O)[C@@H]1CCN1; Sar = CNCC(=O)O
List of Kd values.
All answers are understood in nM, so give the number only.

# Compound, Experimental system, Endpoint label, Measured result
rows = [
    ("CCCN1C(=O)CN(C)C(=O)[C@@H]2CCN2C(=O)[C@H](CC(F)(F)F)NC(=O)[C@H](CC(C)C)N(C)C(=O)C[C@@H](C(=O)N2CCOCC2)N(C)C(=O)[C@H](C2CCCC2)N(C)C(=O)C2(CCCC2)NC(=O)[C@@H]2CCCN2C(=O)[C@H](CCc2ccc(C(F)(F)F)c(Cl)c2)NC(=O)CN(C)C(=O)[C@@H]1Cc1ccc(C(F)(F)F)cc1 [PP0304] ([NMeL][Abu(4,4,4-F3)][Aze][Sar][NPrPhe(4-CF3)][Sar][hPhe(3-Cl-4-CF3)]P[Ac5c][NMeGly(cPent)][NMeD]-Morpholide; lactam N-11)", "GDP-bound KRAS wild-type protein (Homo sapiens, UniProt P01116)", "Kd", 1.9),
    ("CCO[C@@H]1C[C@H]2C(=O)NC3(CC(C)(C)C3)C(=O)N(C)[C@@H](C3CCCC3)C(=O)N(C)[C@H](C(=O)N(C)C)CC(=O)N(C)[C@@H]([C@H](C)OC)C(=O)N[C@@H]([C@@H](C)CC)C(=O)N(C)CC(=O)N(C)[C@H]3C/C=C\\CCN(C3=O)[C@@H](Cc3ccc(C)cc3)C(=O)N(C)CC(=O)N[C@@H](CCc3ccc(C(F)(F)F)c(OC)c3)C(=O)N2C1", "GDP-bound KRAS wild-type protein (Homo sapiens, UniProt P01116)", "Kd", 0.12),
]

Field: next compound
Per the record, CCC[C@H]1C(=O)N[C@@H]([C@@H](C)CC)C(=O)N(C)CC(=O)N(C)[C@H]2C/C=C\CCN(C2=O)[C@@H](Cc2ccc(C)cc2)C(=O)N(C)CC(=O)N[C@@H](CCc2ccc(C(F)(F)F)c(OC)c2)C(=O)N2CC3(CC3)C[C@H]2C(=O)NC2(CC(C)(C)C2)C(=O)N(C)[C@@H](CC(C)(C)C)C(=O)N(C)[C@H](C(=O)N(C)C)CC(=O)N1C has Kd of 0.073

----------
List of IC50 values.
Test system: human lung cancer strain NCI-H441
Assay: NCI-H441 cell proliferation inhibitory activity (CellTiter-Glo, 4 days)
Format: cell-based
Conditions: NCI-H441 cells, 4 days, read-out: NCl-H441 IC50
All answers are understood in nM, so give the number only.

# Molecule, Unit of measurement, IC50
rows = [
    ("CCCO[C@@H]1C[C@H]2C(=O)NC3(CC(C)(C)C3)C(=O)N(C)[C@@H](C3CCCC3)C(=O)N(C)[C@H](C(=O)N(C)CC)CC(=O)N(C)[C@@H](COCC)C(=O)N[C@@H]([C@@H](C)CC)C(=O)N(C3CC3)CC(=O)N(C)[C@H]3C/C=C\\CCN(C3=O)[C@@H](Cc3ccc(C(F)(F)F)cc3)C(=O)N(C)CC(=O)N[C@@H](CCc3ccc(C(F)(F)F)c(Cl)c3)C(=O)N2C1 [PP3403]", "nM", 15.2),
    ("CCC[C@H]1C(=O)N[C@@H]([C@@H](C)CC)C(=O)N(C2CC2)CC(=O)N(C)[C@H]2C/C=C\\CCN(C2=O)[C@@H](CC2CCCCC2)C(=O)N(C)CC(=O)N[C@@H](CCc2ccc(C(F)(F)F)c(OC)c2)C(=O)N2C[C@@H](C)C[C@H]2C(=O)N(C)C2(CCC2)C(=O)N(C)[C@@H](C2CCCC2)C(=O)N(C)[C@H](C(=O)N(C)C)CC(=O)N1C [PP2372]", "nM", 3.3),
]

Field: next molecule
Per the record, CCO[C@@H]1C[C@H]2C(=O)OC3(CCC3)C(=O)N(C)[C@@H](C3CCCC3)C(=O)N(C)[C@H](C(=O)N(C)C)CC(=O)N(C)[C@@H]([C@H](C)OC)C(=O)N[C@@H]([C@@H](C)CC)C(=O)N3CCC[C@H]3C(=O)N(C)[C@H]3C/C=C\CCN(C3=O)[C@@H](Cc3ccc(C(F)(F)F)cc3)C(=O)N(C)CC(=O)N[C@@H](CCc3ccc(C(F)(F)F)c(OC)c3)C(=O)N2C1 [PP3377] has IC50 of 11.3

----------
Target: GDP-bound KRAS wild-type protein (Homo sapiens, UniProt P01116)
Experiment: Binding to KRAS by surface plasmon resonance (SPR), dissociation constant KD
Settings: Single Cycle Kinetics, 1:1 binding model
Procedure: Surface plasmon resonance was used to analyze the binding affinity of compounds for KRAS, NRAS, and HRAS. […] The resulting sensorgram was subjected to curve fitting based on a 1:1 binding model on Biacore Insight Evaluation Software or T200 Evaluation Software, and thereby the dissociation constant KD of each compound with respect to KRAS, NRAS, and HRAS was determined. […]
Endpoint label: pKd
pKd is a log-scale quantity: -log10 of the concentration expressed in molar.

# Compound, pKd
records = [
    ("CCO[C@@H]1C[C@H]2C(=O)NC3(CCC3)C(=O)N(C)[C@@H](C3CCCC3)C(=O)N(C)[C@H](C(=O)N(C)C)CC(=O)N(C)[C@@H](CC(C)C)C(=O)N[C@@H]([C@@H](C)CC)C(=O)N(C)CC(=O)N(C)[C@H]3C/C=C\\CCN(C3=O)[C@@H](Cc3ccc(C(F)(F)F)cc3)C(=O)N(C)CC(=O)N[C@@H](CCc3cc(F)c(Cl)c(F)c3)C(=O)N2C1", 9.64),
    ("CCO[C@@H]1C[C@H]2C(=O)NC3(CCC3)C(=O)N(C)[C@@H](C3CCCC3)C(=O)N(CC)[C@H](C(=O)N3CCOCC3)CC(=O)N(C)[C@@H](CC(C)C)C(=O)N[C@@H]([C@@H](C)CC)C(=O)N(C)CC(=O)N(C)[C@H]3CCCCCN(C3=O)[C@@H](Cc3ccc(C(F)(F)F)cc3)C(=O)N(C)CC(=O)N[C@@H](CCc3cc(F)c(C(F)(F)F)c(F)c3)C(=O)N2C1", 8.47),
]

Field: next molecule
Record CCO[C@@H]1C[C@H]2C(=O)NC3(CCC3)C(=O)N(C)[C@@H](C3CCCC3)C(=O)N(C)[C@H](C(=O)N3CCOCC3)CC(=O)N(C)[C@@H](CC(C)C)C(=O)N[C@@H]([C@@H](C)CC)C(=O)N(C)CC(=O)N(C)[C@H]3C/C=C\CCN(C3=O)[C@@H](Cc3ccc(C(F)(F)F)cc3)C(=O)N(C)CC(=O)N[C@@H](CCc3cc(F)c(C(F)(F)F)c(F)c3)C(=O)N2C1 has GDP-bound KRAS wild-type protein (Homo sapiens, UniProt P01116) pKd equal to 9.70
